Recorded ΔTm values (Dual specificity protein kinase CLK3 (Homo sapiens) (UniProt P49761)) are given below.
Numbers only, in °C.

Recorded ΔTm, per entry:
CN(C)C[C@@H]1CCn2cc(c3ccccc32)C2=C(C(=O)NC2=O)c2cn(c3ccccc23)CCO1 :: 0.3
CC(C)n1cnc2c(NCc3ccccc3)nc(NCCCO)nc21 :: 1
COc1ccc(S(=O)(=O)N(CCO)c2ccccc2CN(C)C/C=C/c2ccc(Cl)cc2)cc1 :: -0.3

For each of the compounds below, note its ΔTm.
1. NC1=N/C(=C2/CCNC(=O)c3[nH]ccc32)C(=O)N1
2. Cc1nc(Nc2ncc(C(=O)Nc3c(C)cccc3Cl)s2)cc(N2CCN(CCO)CC2)n1
3. COc1cc2c(cc1OC)-c1n[nH]c(Nc3cccc(F)c3)c1C2
4. COc1cc2ncnc(Nc3ccc(F)c(Cl)c3)c2cc1OCCCN1CCOCC1
5. COc1ccc2c(c[n+](C)c3c4cc5c(cc4ccc23)OCO5)c1OC [CHELERYTHRINE CHLORIDE]

1: 4.5; 2: 4.1; 3: 0.4; 4: 0.8; 5: -1

Look up ΔTm for this compound: Nc1nc(Nc2ccc(S(N)(=O)=O)cc2)nn1C(=S)Nc1c(F)cccc1F
14.7
